System: spontaneous hypertensive rats
Assay: Antihypertensive activity by oral administration to spontaneous hypertensive rats
Assay type: in vivo, rat
Settings: Rattus norvegicus; dose 3 mg/kg, oral, spontaneous hypertensive rats; read-out: Antihypertensive Activity % Blood Pressure Change
Where a name gives a salt, the structure may show the parent alone.
change in vivo at 3 mg/kg for assorted compounds
reported property: change in vivo at 3 mg/kg (%)

compound	experimental result
COc1cc2nc(N3CCN(C(=O)c4cocn4)CC3)nc(N)c2cc1OC.Cl [Example 7, Hydrochloride]	-29
COc1cc2nc(N3CCN(C(=O)c4ocnc4C)CC3)nc(N)c2cc1OC.Cl [Example 9, Hydrochloride]	-26
COc1cc2nc(N3CCN(C(=O)c4ccno4)CC3)nc(N)c2cc1OC [Example 1, Hydrochloride]	-26
COc1cc2nc(N3CCN(C(=O)c4cscn4)CC3)nc(N)c2cc1OC	-24
COc1cc2nc(N3CCN(C(=O)c4csc(C)n4)CC3)nc(N)c2cc1OC [Example 13, Hydrochloride]	-28
COc1cc2nc(N3CCN(C(=O)c4cc(C)no4)CC3)nc(N)c2cc1OC.Cl [Example 6, Hydrochloride]	-21
COc1cc2nc(N3CCN(C(=O)c4cc(C)on4)CC3)nc(N)c2cc1OC.Cl [Example 4, Hydrochloride]	-18
COc1cc2nc(N3CCN(C(=O)c4ccon4)CC3)nc(N)c2cc1OC [Example 2, Hydrochloride]	-26
COc1cc2nc(N3CCN(C(=O)c4nccs4)CC3)nc(N)c2cc1OC [Example 11, Hydrochloride]	-27

----------
Test system: spontaneous hypertensive rats
Assay: Antihypertensive activity by oral administration to spontaneous hypertensive rats
Assay type: in vivo, rat
Conditions: Rattus norvegicus; dose 10 mg/kg, oral, spontaneous hypertensive rats; read-out: Antihypertensive Activity % Blood Pressure Change
Counter-ions that a name gives are not always drawn.

molecule	tested on	change in vivo at 10 mg/kg
COc1cc2nc(N3CCN(C(=O)c4ccno4)CC3)nc(N)c2cc1OC [Example 1, Hydrochloride]	spontaneous hypertensive rats	-35%
COc1cc2nc(N3CCN(C(=O)c4cc(C)no4)CC3)nc(N)c2cc1OC.Cl [Example 6, Hydrochloride]	spontaneous hypertensive rats	-37%
COc1cc2nc(N3CCN(C(=O)c4cncs4)CC3)nc(N)c2cc1OC.Cl [Example 14, Hydrochloride]	spontaneous hypertensive rats	-33%
COc1cc2nc(N3CCN(C(=O)c4cnc(C)s4)CC3)nc(N)c2cc1OC [Example 15, Hydrochloride]	spontaneous hypertensive rats	-37%
COc1cc2nc(N3CCN(C(=O)c4conc4C)CC3)nc(N)c2cc1OC.Cl [Example 5, Hydrochloride]	spontaneous hypertensive rats	-33%
COc1cc2nc(N3CCN(C(=O)c4cscn4)CC3)nc(N)c2cc1OC	spontaneous hypertensive rats	-32%
COc1cc2nc(N3CCN(C(=O)c4coc(C)n4)CC3)nc(N)c2cc1OC.Cl [Example 8, Hydrochloride]	spontaneous hypertensive rats	-35%

The reported measurements were obtained from patent US4001237A.
